- Method: Cytotoxicity against human SKBR3 cells after 96 hrs by MTT assay
- Type: cell-based
- Assay conditions: SK-BR-3, 96 h
Exercise: for every item that follows, state its recorded IC50.
One number for each entry, in nM.

Please review the following examples before continuing.
C/C(=N\NC(=S)N1CCCC1)c1ccccn1 3.1
C/C(=N\NC(=S)N(C)C)c1ccccn1 2.7
C/C(=N\NC(=S)N1CCCCC1)c1cnccn1 2.2

For each of the items listed, what is its IC50?
1. C/C(=N\NC(=S)N(C)C)c1cnccn1
2. C/C(=N\NC(=S)N1CCCC1)c1cnccn1

1: 1.4; 2: 5
